Molecular target: human recombinant Aminopeptidase N (Homo sapiens)
Sequence (P15144 whole entry): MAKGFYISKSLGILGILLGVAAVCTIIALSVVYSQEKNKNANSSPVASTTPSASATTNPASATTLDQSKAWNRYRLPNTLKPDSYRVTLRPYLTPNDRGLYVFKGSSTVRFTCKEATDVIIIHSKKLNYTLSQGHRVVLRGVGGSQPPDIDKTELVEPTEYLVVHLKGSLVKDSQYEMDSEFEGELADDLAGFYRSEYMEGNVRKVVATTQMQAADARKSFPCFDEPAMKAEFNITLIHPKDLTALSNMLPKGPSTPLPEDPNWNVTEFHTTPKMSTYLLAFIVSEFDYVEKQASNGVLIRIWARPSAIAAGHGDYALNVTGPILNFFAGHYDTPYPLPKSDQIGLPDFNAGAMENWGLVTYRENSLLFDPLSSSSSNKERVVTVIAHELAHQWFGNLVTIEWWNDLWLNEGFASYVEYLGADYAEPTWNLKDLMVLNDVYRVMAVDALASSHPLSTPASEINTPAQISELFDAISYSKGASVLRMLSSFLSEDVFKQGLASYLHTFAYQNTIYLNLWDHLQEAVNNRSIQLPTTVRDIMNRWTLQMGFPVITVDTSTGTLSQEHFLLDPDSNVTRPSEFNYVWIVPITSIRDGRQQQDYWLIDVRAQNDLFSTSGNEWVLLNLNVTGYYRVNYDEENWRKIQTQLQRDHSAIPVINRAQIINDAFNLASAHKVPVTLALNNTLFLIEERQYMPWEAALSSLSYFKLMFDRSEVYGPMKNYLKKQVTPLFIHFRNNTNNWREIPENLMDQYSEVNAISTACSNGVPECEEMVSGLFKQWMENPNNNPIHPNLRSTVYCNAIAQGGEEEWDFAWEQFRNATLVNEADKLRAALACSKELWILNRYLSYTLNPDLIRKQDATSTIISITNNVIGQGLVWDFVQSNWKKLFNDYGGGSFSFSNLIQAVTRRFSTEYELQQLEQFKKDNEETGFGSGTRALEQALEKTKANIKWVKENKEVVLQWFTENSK
Assay: Measurement of APN activity (fluorogenic substrate (Ala)2-R110)
Type: biochemical
Conditions: human recombinant APN approx. 5 nM, substrate 0.5 μM, pH 7.5
Readings of IC50 for the listed compounds
Write the number in µM without appending the unit.

// worked examples, IC50 included
[
  {
    "compound": "CC(C)(CNC(=O)CC(N)Cc1cc(F)ccc1F)CNC(=O)C(O)C(N)Cc1ccc(-c2cccnc2)cc1 (stereo not shown) [drawing 76]",
    "recorded.result": 0.0008
  },
  {
    "compound": "CN(CCCN(C)C(=O)C(O)C(N)Cc1ccccc1)C(=O)CC(N)Cc1cc(F)ccc1F (stereo not shown) [drawing 32]",
    "recorded.result": 8.5
  },
  {
    "compound": "CC(C)(CNC(=O)CC(N)Cc1cc(F)ccc1F)CNC(=O)C(O)C(N)Cc1ccccc1 (stereo not shown) [drawing 26]",
    "recorded.result": 0.06
  },
  {
    "compound": "CN(CCCNC(=O)CC(N)Cc1cc(F)ccc1F)C(=O)C(O)C(N)Cc1ccccc1 (stereo not shown) [drawing 40]",
    "recorded.result": 15.4
  }
]

// next item, IC50 requested
Enquiry: Answer with reported IC50 of NC(CNC(=O)c1cccc(NC(=O)C(O)C(N)Cc2ccc(-c3cccnc3)cc2)c1)Cc1cc(F)ccc1F (stereo not shown) [drawing 79]
Return: 0.0008

Origin of the recorded values: patent US20120258960A1
